Cited source for all entries: ChEMBL document CHEMBL1687834

- Test system: Human immunodeficiency virus 1
- assay_explanation: Ratio of EC50 for HIV1 NL4-3.Luc assessed as infectivity using human MDM pretreated for 24 hrs followed by exposed to virus after compound washout to standard EC50 for HIV1 NL4-3.Luc
- Format: functional
Assign Ratio EC50 to each entry below.
One number for each entry.

Here's what some known entries look like.
* Cc1nnc(C(=O)NC(C)(C)c2nc(C(=O)NCc3ccc(F)cc3)c(O)c(=O)n2C)o1 | 1140
* COc1cc2c(cc1Cc1cccc(Cl)c1F)c(=O)c(C(=O)O)cn2[C@H](CO)C(C)C | 50

## Task If you can, please state the reported Ratio EC50 value of CC(C)OC(=O)OCOP(=O)(CO[C@H](C)Cn1cnc2c(N)ncnc21)OCOC(=O)OC(C)C.O=C(O)/C=C/C(=O)O [TENOFOVIR DISOPROXIL FUMARATE] .
## Result 1.2
